system: barnyardgrass (Echinochloa crus-galli); test: Test C preemergence, plant response rating; type: in vivo; conditions: Preemergence; 31 g ai/ha; scale 0 to 100
Recorded Plant response rating, Barnyardgrass for the following molecules
Quantity: Plant response rating, Barnyardgrass

{"Compound Smiles": "CCCC(=O)c1c(Br)cccc1Oc1ncc(Cl)cn1", "Observed Result": 60}
{"Compound Smiles": "N#Cc1cccc(Oc2ncc(Cl)cn2)c1CCCC(F)(F)F", "Observed Result": 90}
{"Compound Smiles": "O=C(CCCCC(F)(F)F)c1c(Br)cccc1Oc1ncc(Cl)cn1", "Observed Result": 5}
{"Compound Smiles": "O=C(OCCC(F)(F)F)c1c(Br)cccc1Oc1ncc(Br)cn1", "Observed Result": 40}

====

system: soybean (Glycine max); experiment: Test C preemergence, plant response rating; format: in vivo; settings: Preemergence; 31 g ai/ha; scale 0 to 100
# Lookup of reported Plant response rating, Soybean keyed by entry
Quantity: Plant response rating, Soybean

{"Compound Smiles": "O=C(CCCC(F)(F)F)c1c(Oc2ncc(Cl)cn2)cccc1C(F)(F)F", "Observed Result": 0}
{"Compound Smiles": "O=C(CCCCC(F)(F)F)c1c(Br)cccc1Oc1ncc(Cl)cn1", "Observed Result": 0}
{"Compound Smiles": "O=C(CCC(F)(F)F)c1c(Br)cccc1Oc1ncc(Cl)cn1", "Observed Result": 40}
{"Compound Smiles": "C=C(Br)COC(=O)c1c(Br)cccc1Oc1ncc(Cl)cn1", "Observed Result": 20}
{"Compound Smiles": "FC(F)(F)CCCc1c(Br)cccc1Oc1ncc(Cl)cn1", "Observed Result": 5}

====

test system: ragweed (common ragweed, Ambrosia elatior); assay: Test A postemergence, visual injury rating; type: in vivo; settings: 500 g ai/ha, 0 is no effect, 100 is complete control
# Ragweed plant response rating (0 to 100 scale) listing for each entry below
Quantity: Ragweed plant response rating (0 to 100 scale)

{"Compound": "O=C(OCC(F)(F)F)c1c(F)cccc1Oc1ncc(Br)cn1 [Compound 47]", "Assayed Target": "ragweed (common ragweed, Ambrosia elatior)", "Observed Result": 0}
{"Compound": "O=C(OCCC(F)(F)F)c1c(Br)cccc1Oc1ncc(Br)cn1 [Compound 33]", "Assayed Target": "ragweed (common ragweed, Ambrosia elatior)", "Observed Result": 40}
{"Compound": "CCCCC(=O)c1c(Oc2ncc(Cl)cn2)cccc1C(F)(F)F [Compound 130]", "Assayed Target": "ragweed (common ragweed, Ambrosia elatior)", "Observed Result": 60}
{"Compound": "CC(CN(C)C(=O)c1c(Br)cccc1Oc1ncc(Cl)cn1)C(F)(F)F (centres unmarked) [Compound 18]", "Assayed Target": "ragweed (common ragweed, Ambrosia elatior)", "Observed Result": 0}
{"Compound": "CCOCc1c(Br)cccc1Oc1ncc(Cl)cn1 [Compound 106]", "Assayed Target": "ragweed (common ragweed, Ambrosia elatior)", "Observed Result": 0}
{"Compound": "O=C(OCCC(F)(F)F)c1ccccc1Oc1ncc(Cl)cn1 [Compound 17]", "Assayed Target": "ragweed (common ragweed, Ambrosia elatior)", "Observed Result": 0}
{"Compound": "O=Cc1c(Cl)cccc1Oc1ncc(Cl)cn1 [Compound 139]", "Assayed Target": "ragweed (common ragweed, Ambrosia elatior)", "Observed Result": 0}
{"Compound": "N#CCOC(=O)c1c(F)cccc1Oc1ncc(Cl)cn1 [Compound 49]", "Assayed Target": "ragweed (common ragweed, Ambrosia elatior)", "Observed Result": 0}
{"Compound": "O=C(OC1CCC1)c1c(Br)cccc1Oc1ncc(Cl)cn1 [Compound 78]", "Assayed Target": "ragweed (common ragweed, Ambrosia elatior)", "Observed Result": 30}
{"Compound": "N#CCCOC(=O)c1c(Br)cccc1Oc1ncc(Cl)cn1 [Compound 7]", "Assayed Target": "ragweed (common ragweed, Ambrosia elatior)", "Observed Result": 90}
{"Compound": "N#Cc1cccc(Oc2ncc(Cl)cn2)c1C(=O)OCCC(F)(F)F [Compound 30]", "Assayed Target": "ragweed (common ragweed, Ambrosia elatior)", "Observed Result": 0}

====

system: buckwheat, wild (wild buckwheat, Polygonum convolvulus); assay: Test C postemergence, plant response rating; type: in vivo; conditions: 125 g ai/ha, scale 0 to 100 (0 no effect, 100 complete control)

{"Compound Smiles": "FC(F)(F)CCCc1c(Br)cccc1Oc1ncc(Cl)cn1", "Buckwheat, Wild plant response rating": 85}
{"Compound Smiles": "O=C(CCCCC(F)(F)F)c1c(Br)cccc1Oc1ncc(Cl)cn1", "Buckwheat, Wild plant response rating": 100}
{"Compound Smiles": "O=C(CCCC(F)(F)F)c1c(Oc2ncc(Cl)cn2)cccc1C(F)(F)F", "Buckwheat, Wild plant response rating": 98}
{"Compound Smiles": "CCCC(=O)c1c(Br)cccc1Oc1ncc(Cl)cn1", "Buckwheat, Wild plant response rating": 85}
{"Compound Smiles": "O=C(CCCC(F)(F)F)c1c(Cl)cccc1Oc1ncc(Cl)cn1", "Buckwheat, Wild plant response rating": 100}

====

In this section we review reported Plant response rating, Field Poppy values for a set of compounds.
tested on: field poppy (Papaver rhoeas); assay: Test C postemergence, plant response rating; type: in vivo; conditions: 16 g ai/ha, scale of 0 to 100
Quantity: Plant response rating, Field Poppy

{"Compound Smiles": "FC(F)(F)CCCCc1c(Br)cccc1Oc1ncc(Cl)cn1", "Observed Result": 100}
{"Compound Smiles": "FC(F)(F)CCCc1c(Br)cccc1Oc1ncc(Cl)cn1", "Observed Result": 90}
{"Compound Smiles": "FC(F)(F)CCCCc1c(Cl)cccc1Oc1ncc(Cl)cn1", "Observed Result": 85}
{"Compound Smiles": "O=C(CCCCC(F)(F)F)c1c(Br)cccc1Oc1ncc(Cl)cn1", "Observed Result": 50}
{"Compound Smiles": "O=C(CCC(F)(F)F)c1c(Cl)cccc1Oc1ncc(Cl)cn1", "Observed Result": 80}
{"Compound Smiles": "O=C(CCCC(F)(F)F)c1c(Cl)cccc1Oc1ncc(Cl)cn1", "Observed Result": 80}

====

test system: Italian ryegrass (Lolium multiflorum); experiment: Test A postemergence, visual injury rating; type: in vivo; conditions: 125 g ai/ha, 0 is no effect, 100 is complete control
Quantity: Ryegrass, Italian plant response rating (0 to 100 scale)

{"Compound": "CN(OCC(F)(F)F)C(=O)c1c(Br)cccc1Oc1ncc(Br)cn1 [Compound 24]", "Observed Result": 0}
{"Compound": "C#CCCOC(=O)c1c(Br)cccc1Oc1ncc(Cl)cn1 [Compound 38]", "Observed Result": 0}
{"Compound": "O=C(OCCCC(F)(F)F)c1c(Oc2ncc(Cl)cn2)cccc1C(F)(F)F [Compound 65]", "Observed Result": 0}
{"Compound": "O=C(OCC(F)(F)F)c1c(Br)cccc1Oc1ncc(Br)cn1 [Compound 34]", "Observed Result": 0}
{"Compound": "O=C(OCCC(F)(F)F)c1c(Br)cccc1Oc1ncc(Br)cn1 [Compound 33]", "Observed Result": 30}
{"Compound": "N#CCOC(=O)c1c(Br)cccc1Oc1ncc(Cl)cn1 [Compound 40]", "Observed Result": 0}
{"Compound": "O=C(OC1CCCC1)c1c(Br)cccc1Oc1ncc(Cl)cn1 [Compound 44]", "Observed Result": 0}
{"Compound": "N#CCCOC(=O)c1c(Br)cccc1Oc1ncc(Cl)cn1 [Compound 7]", "Observed Result": 20}
{"Compound": "O=C(OCC(F)(F)C(F)(F)F)c1c(F)cccc1Oc1ncc(Cl)cn1 [Compound 5]", "Observed Result": 0}

====

tested on: wild poinsettia (Euphorbia heterophylla); test: Test C postemergence, plant response rating; type: in vivo; conditions: 125 g ai/ha, scale 0 to 100 (0 no effect, 100 complete control)
Recorded Poinsettia, Wild plant response rating values for a group of compounds are listed next.
Quantity: Poinsettia, Wild plant response rating

{"Compound": "FC(F)(F)CCCc1c(Br)cccc1Oc1ncc(Cl)cn1 [Compound 89]", "Observed Result": 90}
{"Compound": "O=C(CCC(F)(F)F)c1c(Cl)cccc1Oc1ncc(Cl)cn1 [Compound 107]", "Observed Result": 90}
{"Compound": "CCCCC(=O)c1c(Br)cccc1Oc1ncc(Cl)cn1 [Compound 79]", "Observed Result": 85}
{"Compound": "CCCC(=O)c1c(Oc2ncc(Cl)cn2)cccc1C(F)(F)F [Compound 136]", "Observed Result": 75}
{"Compound": "O=C(CCCC(F)(F)F)c1c(Oc2ncc(Cl)cn2)cccc1C(F)(F)F [Compound 125]", "Observed Result": 85}

====

system: giant foxtail (Setaria faberii); test: Test A preemergence, visual injury rating; format: in vivo; conditions: 125 g ai/ha, 0 to 100 scale (0 no effect, 100 complete control)
Source text: […]
rule met means recorded Plant response rating, Foxtail, Giant is 70 or above; rule not met means it is below 70.

{"Compound": "FC(F)(F)CCCCc1c(Oc2ncc(Cl)cn2)cccc1C1CC1 [Compound 135]", "Assayed Target": "giant foxtail (Setaria faberii)", "Label Value": "rule not met"}
{"Compound": "CCCC(C#N)c1c(Br)cccc1Oc1ncc(Cl)cn1 (stereo not drawn) [Compound 118]", "Assayed Target": "giant foxtail (Setaria faberii)", "Label Value": "rule not met"}
{"Compound": "O=C(OCC(F)(F)C(F)F)c1c(Br)cccc1Oc1ncc(Cl)cn1 [Compound 103]", "Assayed Target": "giant foxtail (Setaria faberii)", "Label Value": "rule not met"}
{"Compound": "O=C(CCC(F)(F)F)c1c(Cl)cccc1Oc1ncc(Cl)cn1 [Compound 107]", "Assayed Target": "giant foxtail (Setaria faberii)", "Label Value": "rule met"}
{"Compound": "FC(F)(F)CCCc1c(Cl)cccc1Oc1ncc(Cl)cn1 [Compound 122]", "Assayed Target": "giant foxtail (Setaria faberii)", "Label Value": "rule not met"}
